tested on: ovariectomized mice; test: Anti-estrogenic activity (subcutaneous administration): inhibition of estradiol-stimulated uterine weight increase; type: in vivo, mice (ICR); settings: s.c., 3 days, 30 μg/mouse in peanut oil; ovariectomized ICR mice given 17β-estradiol-benzoate 0.1 μg/day
measured.endpoint: Inhibition (%) of the increase of uterine weight by estradiol

molecule	experimental.system	numeric.readout
CC(C)(C)c1cc(CN2CCN(CCOc3ccc([C@@H]4c5ccc(O)cc5OC[C@@]4(C)c4ccc(O)cc4)cc3)CC2)cc(C(C)(C)C)c1 (racemic) [Example 3]	ovariectomized mice	11.7
C[C@]1(c2ccc(O)cc2)CCc2cc(O)ccc2C1CCCCCCCCC[S+]([O-])CCCC(F)(F)C(F)(F)F (stereo partly shown) [ZM189154, reference compound]	ovariectomized mice	73.8
CN(CCCCC[C@H]1c2ccc(O)cc2OC[C@@]1(C)c1ccc(O)cc1)CCCSCCCC(F)(F)C(F)(F)F (racemic) [Example 4]	ovariectomized mice	26.4
CCCCNC(=N)CCCCCCCCCC[C@H]1c2ccc(O)cc2OC[C@@]1(C)c1ccc(O)cc1 (racemic) [Compound I of Example 2]	ovariectomized mice	30.8
CCCCN=C(CCCCCCCCCC[C@H]1c2ccc(O)cc2OC[C@@]1(C)c1ccc(O)cc1)NCCCC (racemic) [Compound II of Example 2]	ovariectomized mice	−9.3
[O-][S+](CCCC(F)(F)C(F)(F)F)CCOCCOc1ccc(C2=C(c3ccc(O)cc3)COc3cc(O)ccc32)cc1 (stereo not shown) [Example 5]	ovariectomized mice	9.8
CC1(c2ccc(O)cc2)CSc2cc(O)ccc2C1CCCCCCCCC(CCCC(F)(F)C(F)(F)F)C(=O)O (stereo not shown) [Example 22]	ovariectomized mice	51.0

###

tested on: MCF-7 cell lines (ATCC); assay: Cell growth inhibiting activity (MTT, with 0.1 nM estradiol, 7 days); type: cell-based; conditions: Homo sapiens, MCF7, 168 h, MCF-7 cells, 7 days at 37° C., absorption at 570 nm, read-out: IC50 value for inhibiting cell growth of 50%
measured.endpoint: IC50 (nM)

> print(dat)
                                   compound  measured.endpoint  unit.of.measurement  numeric.readout
1  [O-][S+](CCCC(F)(F)C(F)(F)F)CCOCCOc1ccc(C2=C(c3ccc(O)cc3)COc3cc(O)ccc32)cc1 (stereo not shown) [Example 5]               IC50                   nM              387

###

test system: MCF-7 cell lines (ATCC); test: Cell growth inhibiting activity (MTT, with 0.1 nM estradiol, 7 days); format: cell-based; conditions: Homo sapiens, MCF7, 168 h, MCF-7 cells, 7 days, control compound, (trans), read-out: IC50 value for inhibiting cell growth of 50%
pIC50: −log10 of the molar value.

molecule	experimental.system	pIC50
C[C@]1(c2ccc(O)cc2)CCc2cc(O)ccc2C1CCCCCCCCC[S+]([O-])CCCC(F)(F)C(F)(F)F (stereo partly shown) [ZM189154, reference compound]	MCF-7 cell lines (ATCC)	7.11

Sourced from patent US7074819B2
